- TARGET OR SYSTEM: SMARCA2 (Homo sapiens)
- Sequence (P51531 whole entry): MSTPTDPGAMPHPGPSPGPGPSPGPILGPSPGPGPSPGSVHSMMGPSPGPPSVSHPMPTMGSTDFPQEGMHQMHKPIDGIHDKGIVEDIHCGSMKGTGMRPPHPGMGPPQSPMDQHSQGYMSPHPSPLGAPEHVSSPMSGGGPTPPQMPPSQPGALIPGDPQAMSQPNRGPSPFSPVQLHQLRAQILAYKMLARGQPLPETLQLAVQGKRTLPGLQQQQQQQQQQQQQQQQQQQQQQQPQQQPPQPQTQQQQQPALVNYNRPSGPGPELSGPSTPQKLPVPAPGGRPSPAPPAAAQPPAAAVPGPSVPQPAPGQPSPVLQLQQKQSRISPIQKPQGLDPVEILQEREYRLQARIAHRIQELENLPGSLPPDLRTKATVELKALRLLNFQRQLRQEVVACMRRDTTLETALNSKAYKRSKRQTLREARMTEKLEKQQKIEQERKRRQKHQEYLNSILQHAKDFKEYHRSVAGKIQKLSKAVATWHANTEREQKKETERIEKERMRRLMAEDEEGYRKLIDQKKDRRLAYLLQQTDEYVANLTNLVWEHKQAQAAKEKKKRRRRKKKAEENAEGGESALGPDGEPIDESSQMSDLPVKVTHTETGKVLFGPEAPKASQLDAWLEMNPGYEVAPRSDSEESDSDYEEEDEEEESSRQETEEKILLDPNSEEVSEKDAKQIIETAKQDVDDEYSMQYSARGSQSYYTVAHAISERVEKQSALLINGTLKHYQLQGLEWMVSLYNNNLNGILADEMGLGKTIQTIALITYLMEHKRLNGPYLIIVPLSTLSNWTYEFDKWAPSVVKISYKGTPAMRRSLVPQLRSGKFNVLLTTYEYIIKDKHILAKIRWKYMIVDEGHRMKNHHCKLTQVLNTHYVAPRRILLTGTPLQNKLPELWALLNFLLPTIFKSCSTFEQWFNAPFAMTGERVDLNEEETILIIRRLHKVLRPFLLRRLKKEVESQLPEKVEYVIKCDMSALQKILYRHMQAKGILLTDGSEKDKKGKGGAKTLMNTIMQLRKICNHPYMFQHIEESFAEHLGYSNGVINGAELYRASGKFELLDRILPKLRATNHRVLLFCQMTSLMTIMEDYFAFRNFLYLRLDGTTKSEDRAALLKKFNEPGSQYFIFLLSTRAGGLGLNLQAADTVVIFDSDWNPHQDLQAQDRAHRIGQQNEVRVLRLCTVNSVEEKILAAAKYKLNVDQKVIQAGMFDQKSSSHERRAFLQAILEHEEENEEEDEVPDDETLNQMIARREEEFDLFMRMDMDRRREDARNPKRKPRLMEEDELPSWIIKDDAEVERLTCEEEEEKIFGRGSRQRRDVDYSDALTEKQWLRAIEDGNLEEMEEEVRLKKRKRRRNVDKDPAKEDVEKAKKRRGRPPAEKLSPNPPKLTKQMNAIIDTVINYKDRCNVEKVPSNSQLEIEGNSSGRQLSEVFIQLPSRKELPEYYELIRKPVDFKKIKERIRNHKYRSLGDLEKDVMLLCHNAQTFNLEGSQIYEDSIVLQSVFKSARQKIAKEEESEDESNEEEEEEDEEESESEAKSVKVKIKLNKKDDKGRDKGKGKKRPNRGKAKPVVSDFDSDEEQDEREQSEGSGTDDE
- ASSAY NAME: SMARCA2 Western blot degradation in MV4-11 cells
- Format: cell-based
- Design: SMARCA2/SMARCA4 protein degradation selectivity in MV4-11 cells; endogenous in cells; host or cells: MV4-11
- STUDY CONDITIONS: SMARCA2/4 selectivity, MV4-11 cells
QUANTITY: Selectivity in MV411

Cc1ncsc1-c1ccc(CNC(=O)[C@@H]2C[C@@H](O)CN2C(=O)[C@@H](NC(=O)[C@H]2CC3(C2)C[C@H](N2CCC(c4ccnc(N5CCN6c7cc(-c8ccccc8O)nnc7NC[C@@H]6C5)n4)CC2)C3)C(C)(C)C)cc1 (single isomer, unassigned) [I-4]; B (B (>100-500 fold))
Cc1ncsc1-c1ccc(CNC(=O)[C@@H]2C[C@@H](O)CN2C(=O)[C@@H](NC(=O)[C@H]2CC3(CC[C@H](N4CCN(c5ccnc(N6CCc7[nH]c8nnc(-c9ccccc9O)cc8c7[C@H]6C)n5)CC4)CC3)C2)C(C)(C)C)cc1 (single isomer, unassigned) [I-81]; C (C (10-100 fold))
Cc1ncsc1-c1ccc(CNC(=O)[C@@H]2C[C@@H](O)CN2C(=O)[C@@H](NC(=O)C2(F)CC2)C(C)(C)C)c(O[C@H]2CC[C@H](N3CCC(c4cnc(N5CCc6[nH]c7nnc(-c8ccccc8O)cc7c6[C@H]5C)nc4)CC3)CC2)c1 (single isomer, unassigned); D (D (<10 fold))
C#Cc1ccc(CNC(=O)[C@@H]2C[C@@H](O)CN2C(=O)[C@@H](NC(=O)[C@H]2CCC3(CC2)C[C@H](N2CCC(N4CC5(CC(N6CCN7c8cc(-c9ccccc9O)nnc8NC[C@H]7C6)C5)C4)CC2)C3)C(C)(C)C)c(Cl)c1 (single isomer, unassigned) [I-220]; B (B (>100-500 fold))
C#Cc1ccc(CNC(=O)[C@@H]2C[C@@H](O)CN2C(=O)[C@@H](NC(=O)N2CC3(CC(N4CCC(c5cnc(N6CCc7[nH]c8nnc(-c9ccccc9O)cc8c7[C@H]6CO)nc5)CC4)C3)C2)C(C)(C)C)c(Cl)c1; C (C (10-100 fold))
C#Cc1ccc(CNC(=O)[C@@H]2C[C@@H](O)CN2C(=O)[C@@H](NC(=O)N2CCO[C@H](CN3CCC(N4CCC(N5CCN6c7cc(-c8ccccc8O)nnc7NC[C@H]6C5)CC4)CC3)C2)C(C)(C)C)cc1; C (C (10-100 fold))

Now turn to the next molecule.
Query :: Which value of Selectivity in MV411 has been reported for Cc1ncsc1-c1ccc(CNC(=O)[C@@H]2C[C@@H](O)CN2C(=O)C(c2cc(OCCCCN3CCC(c4cnc(N5CCN6c7cc(-c8ccccc8O)nnc7NC[C@H]6C5)nc4)CC3)no2)C(C)C)cc1 (some centres unmarked) in the records?
Result :: D (D (<10 fold))

###

- TARGET OR SYSTEM: SMARCA2 (Homo sapiens)
- ASSAY NAME: SMARCA2 Western blot degradation in MV4-11 cells
- Type: cell-based
- Design: SMARCA2/SMARCA4 protein degradation selectivity in MV4-11 cells; endogenous in cells; host or cells: MV4-11
- STUDY CONDITIONS: SMARCA2/4 selectivity, MV4-11 cells
QUANTITY: Selectivity in MV411

// solved cases for Selectivity in MV411 follow
C#Cc1ccc(CNC(=O)[C@@H]2C[C@@H](O)CN2C(=O)[C@@H](NC(=O)N2CCN(CC3CCN([C@H]4CC[C@@H](N5CCc6[nH]c7nnc(-c8ccccc8O)cc7c6[C@H]5C)CC4)CC3)CC2)C(C)(C)C)cc1 [I-203]; C (C (10-100 fold))
Cc1ncsc1-c1ccc(CNC(=O)[C@@H]2C[C@@H](O)CN2C(=O)[C@@H](NC(=O)[C@H]2CCC3(CC2)C[C@H](N2CCC4(CC2)CN(C(=O)N2CCN5c6cc(-c7ccccc7O)nnc6NC[C@H]5C2)CCO4)C3)C(C)(C)C)cc1 (single isomer, unassigned) [I-93]; C (C (10-100 fold))
CC(C)(C)[C@H](NC(=O)[C@H]1CCC2(CC1)C[C@H](N1CCC(c3cnc(N4CCN5c6cc(-c7ccccc7O)nnc6NC[C@H]5C4)nc3)CC1)C2)C(=O)N1C[C@H](O)C[C@H]1C(=O)NCC#Cc1ccc(Cl)cc1 (single isomer, unassigned) [I-101]; C (C (10-100 fold))
C#Cc1cnc(CNC(=O)[C@@H]2C[C@@H](O)CN2C(=O)C(c2cc(OCCN3CCC(N4CCC(N5CCC(CN6CCN7c8cc(-c9ccccc9O)nnc8NC[C@H]7C6)CC5)CC4)CC3)no2)C(C)C)c(OC)c1 (some centres unmarked) [I-303]; B (B (>100-500 fold))
C#Cc1ccc(CNC(=O)[C@@H]2C[C@@H](O)CN2C(=O)[C@@H](NC(=O)N2CC3(CC(N4CCC(N5CCC(N6CCc7[nH]c8nnc(-c9ccccc9O)cc8c7[C@H]6C)CC5)CC4)C3)C2)C(C)(C)C)c(OC)c1 [I-183]; C (C (10-100 fold))

Query :: Which value of Selectivity in MV411 has been reported for C#Cc1ccc([C@@H](CO)NC(=O)[C@@H]2C[C@@H](O)CN2C(=O)[C@@H](NC(=O)N2CC3(CC(N4CCC(c5cnc(N6CCc7[nH]c8nnc(-c9ccccc9O)cc8c7[C@H]6C)nc5)CC4)C3)C2)C(C)(C)C)nc1 [I-305] in the records?
Result :: D (D (<10 fold))

Query :: Which value of Selectivity in MV411 has been reported for C#Cc1ccc(CNC(=O)[C@@H]2C[C@@H](O)CN2C(=O)[C@@H](NC(=O)N2CC3(CC(N4CCC(c5cnc(N6CCN7c8cc(-c9ccccc9O)nnc8NC[C@H]7C6)nc5)CC4)C3)C2)C(C)(C)C)cc1 [I-111] in the records?
Result :: C (C (10-100 fold))

Query :: Which value of Selectivity in MV411 has been reported for C#Cc1ccc(CNC(=O)[C@@H]2C[C@@H](O)CN2C(=O)[C@@H](NC(=O)c2ccc(N3CCC(N4CCC(N5CCN6c7cc(-c8ccccc8O)nnc7NC[C@H]6C5)CC4)CC3)cc2)C(C)(C)C)cc1 [I-277] in the records?
Result :: C (C (10-100 fold))

Values were extracted from patent US20250170248A1.
